// data source = PubChem BioAssay AID588549

# Test system: Mycobacterium tuberculosis FadD28 fatty-acid-AMP ligase
# protocol: inhibitors of FadD28 bisubstrate probe binding, primary screen, biochemical, fluorescence polarization, single point (AID 588549)
# run.parameters: at 12.5 µM, hits give high values
In all, about 360,000 compounds went through this assay and about 780 (0.22%) were called active. The list comes from a sample in which actives are over-represented; it also holds close analogues and randomly drawn compounds.
Collected inhibition values appear next to each entry.
measured.parameter: inhibition (%)

{"molecule": "Nc1ncc(CN2CCCC(C(=O)Nc3ccc(-c4ccco4)cc3)C2)cn1 (centres undefined)", "measured.parameter": "inhibition", "quantitative.readout": -5.68}
{"molecule": "CCCN(C(=O)c1nc2nccc(C)n2n1)c1c(N)n(Cc2ccccc2)c(=O)[nH]c1=O", "measured.parameter": "inhibition", "quantitative.readout": 0.906}
{"molecule": "CC/C(=N\\NC(=O)c1ccccc1O)c1c(O)n(Cc2ccccc2)c(=O)[nH]c1=O", "measured.parameter": "inhibition", "quantitative.readout": 17.8}
{"molecule": "COc1cccc(C(=O)Oc2cc(C)[nH]c(=O)c2[N+](=O)[O-])c1", "measured.parameter": "inhibition", "quantitative.readout": -0.419}
{"molecule": "CN1C(=O)CC(c2ccccc2)C1=O (centres undefined)", "measured.parameter": "inhibition", "quantitative.readout": -1.61}
{"molecule": "COc1cccc(C2CC(c3ccccc3)=NN2S(=O)(=O)c2ccccc2)c1OC (centres undefined)", "measured.parameter": "inhibition", "quantitative.readout": 9.71}
{"molecule": "O=C(OCc1ccc([N+](=O)[O-])cc1)C1CC(=O)N(Cc2ccccc2Cl)C1 (centres undefined)", "measured.parameter": "inhibition", "quantitative.readout": -0.71}
{"molecule": "O=C(COC(=O)CNS(=O)(=O)c1ccc(F)c(F)c1F)NC1CCCC1", "measured.parameter": "inhibition", "quantitative.readout": -2.7}
{"molecule": "O=C1NC(=O)N(c2ccccc2)C(=O)/C1=C/c1ccc([N+](=O)[O-])s1", "measured.parameter": "inhibition", "quantitative.readout": 25.4}
{"molecule": "COc1cccc(C2CC(c3cccs3)=NN2C(=O)CSC2=NCCS2)c1OC (centres undefined)", "measured.parameter": "inhibition", "quantitative.readout": -1.77}
{"molecule": "Cc1ccc(N(Cc2ccc(C(=O)Nc3ccccc3C(=O)NCc3ccco3)cc2)S(C)(=O)=O)cc1C", "measured.parameter": "inhibition", "quantitative.readout": -1.65}
{"molecule": "CCCCN1C(=O)C(CC(=O)NCc2cccs2)CC(C(=O)N2CCOCC2)=C1C (centres undefined)", "measured.parameter": "inhibition", "quantitative.readout": -1.02}
{"molecule": "CCOCN(C(=O)Cn1c(C(C)O)nc2ccccc21)c1c(C)cccc1CC (centres undefined)", "measured.parameter": "inhibition", "quantitative.readout": -5.11}
{"molecule": "Cc1ccc(NC(=O)CSCC(=O)NC2CCCCC2)cc1", "measured.parameter": "inhibition", "quantitative.readout": 1.13}

---

# Tested on: Mycobacterium tuberculosis FadD28 fatty-acid-AMP ligase
# protocol: inhibitors of FadD28 bisubstrate probe binding, primary screen, biochemical, fluorescence polarization, single point (AID 588549)
# run.parameters: at 12.5 µM, hits give high values
The campaign covered roughly 360,000 compounds. About 780 (0.22%) were called active. The sample holds actives, similar compounds and a random draw of the others, so the mix is not that of the screen.
Reported inhibition by item:

{"molecule": "C=CCn1c(SCc2cc(C(=O)OC)c(C)o2)nnc1-c1ccncc1", "inhibition [%]": -3.43}
{"molecule": "O=C(COC(=O)c1cccc(Cl)c1)NC(=O)NCc1ccccc1", "inhibition [%]": -1.95}
{"molecule": "Cc1cccc(C)c1NC(=O)CS(=O)CC(=O)N1CCN(c2ccccc2)CC1 (stereo not given)", "inhibition [%]": 0.692}
{"molecule": "COc1ccc(/C=C/CN2CCCC(C(=O)c3cc(F)ccc3F)C2)cc1 (stereo not given)", "inhibition [%]": -1.96}
{"molecule": "O=S(=O)(c1ccc(SCc2ccc(Br)cc2)nc1)N1CCOCC1", "inhibition [%]": -1.66}
{"molecule": "O=S(=O)(NCC1OCCc2ccccc21)c1ccccc1 (stereo not given)", "inhibition [%]": -0.133}
{"molecule": "COc1ccc(C(=O)NCc2ccc(Cl)cc2)cc1S(=O)(=O)N1CCCC1", "inhibition [%]": 39.8}
{"molecule": "COCCNC(=O)Nc1ccc2nc(-c3ccco3)c(-c3ccco3)nc2c1", "inhibition [%]": 20.8}
{"molecule": "CCN(CC(=O)NCc1cccs1)C(=O)c1cccc(S(=O)(=O)Nc2ccccc2OC)c1", "inhibition [%]": -3.38}
{"molecule": "COc1cccc(/C=N/Nc2ccc(S(=O)(=O)Nc3ccccc3C(=O)O)cc2[N+](=O)[O-])c1O", "inhibition [%]": 35.4}
{"molecule": "O=C(O)C(c1ccccc1)N1C(=O)/C(=C\\c2ccc(-c3cccc(Cl)c3)o2)SC1=S (stereo not given)", "inhibition [%]": 13}
{"molecule": "COc1ccc(C(CNC(=O)c2cccc(S(=O)(=O)Nc3ccccc3Cl)c2)N2CCOCC2)cc1 (stereo not given)", "inhibition [%]": 0.098}
{"molecule": "OC(CNC1CCCC1)COc1ccc(F)cc1 (stereo not given)", "inhibition [%]": -4.58}
{"molecule": "CN(CC#CCC(c1ccccc1)c1ccccc1)C(C)(C)C", "inhibition [%]": -4.42}
{"molecule": "CC(C)C(NC(=O)c1c(F)cccc1F)C(=O)NNC(=O)c1ccccc1 (stereo not given)", "inhibition [%]": -3.91}
